# Tested on: UACC-62 melanoma
# assay: NCI-60 one-dose screen, 48 h (100 = growth as untreated, 0 = no growth, -100 = all killed)
# assay_setup: 10 µM unless noted
About 83,000 compounds went through this panel and 20% of them were active in at least one assay; those are over-represented in the sample as a whole.
readout_label: growth (%)
Give the quantity in %, number only.

Answered cases to consult:
{"test_smiles": "O=C1Nc2ccccc2/C1=C\\c1c(-c2ccc(F)cc2)nc2ccccn12", "growth, %": 65.1}
{"test_smiles": "O=C(/C=C/c1c(-c2ccc(Cl)cc2)nn(-c2ccccc2)c1C(F)(F)F)c1ccc(Cl)cc1", "growth, %": 82.5}
{"test_smiles": "N#Cc1c(NCc2ccccc2I)sc2c1CCCCC2", "growth, %": 69.5}
{"test_smiles": "O=C1c2cccc3c(-c4ccc5c(c4)ncn5C4CCCCC4)ccc(c23)C(=O)N1c1nc2ccccc2s1", "growth, %": 73}

Proceeding to the next molecule to report its growth.
Lookup: For the molecule shown here, "O=C(Nc1ccc(-c2ccc3c(c2)NC(=O)/C3=C\c2ccc[nH]2)cc1)NC1CC1" , give the reported growth.
Found: 97.7

---

# maps each entry to its growth
# Tested on: SNB-19 CNS
# assay: NCI-60 one-dose screen, 48 h (100 = growth as untreated, 0 = no growth, -100 = all killed)
# assay_setup: 10 µM unless noted
About 83,000 compounds went through this panel and 20% of them were active in at least one assay; those are over-represented in the sample as a whole. Activity calls are given as the source filed them. The calls were made as follows: active = growth percent below 10; inactive = the rest.

Example entries and their recorded answers appear below.
{"molecule": "CCCCCN1C=C/C(=C\\C(=O)n2ccc3ccccc32)c2ccccc21", "growth": "106% (inactive)"}
{"molecule": "C#CCNC(=O)[C@H](Cc1ccccc1)NC(=O)[C@]12CC[C@@H](C(=C)C)[C@@H]1[C@H]1CC[C@@H]3[C@@]4(C)CCC(=O)C(C)(C)[C@@H]4CC[C@@]3(C)[C@]1(C)CC2", "growth": "82.6% (inactive)"}
{"molecule": "CC(=O)c1ccc(NS(=O)(=O)c2cccc(C(=O)Nc3ccc(Br)cc3)c2)cc1", "growth": "60.4% [25 µM] (inactive)"}

Lookup: Can you share its growth? I mean this molecule: N#CC1C(C#N)C2c3ccccc3C=CN2C1C(=O)c1ccc(Br)cc1 (stereo not drawn)
Found: 91.2% (inactive)

Lookup: Can you handle "C#CCNC(=O)[C@]1(C)CC[C@]2(C)CC[C@@H]3C(=CC[C@H]4[C@@]3(C)CC[C@H]3C(C)(C)C(=O)CC[C@]43C)[C@@H]2C1" next?
Found: 102% (inactive)

Lookup: Same read-out for "CC(=O)Nc1ccc(-c2ccc3c(c2)NC(=O)/C3=C\c2ccc[nH]2)cc1" ?
Found: 104% (inactive)

Lookup: Quick one: COc1cc(/C=N/NC(=O)c2cnn3c2NC(c2ccccc2)C3)ccc1Oc1ccccc1 (stereo not drawn)
Found: 39.2% (inactive)

Lookup: Next up: NS(=O)(=O)c1ccc(CCN2C(=O)C3C(C2=O)C2(Cl)C(Cl)=C(Cl)C3(Cl)C2(Cl)Cl)cc1 (stereo not drawn)
Found: 101% (inactive)

---

Consider the following compounds and their measured growth readings.
# Test system: UACC-62 melanoma
# assay: NCI-60 one-dose screen, 48 h (100 = growth as untreated, 0 = no growth, -100 = all killed)
# assay_setup: 10 µM unless noted
This is part of a sample that, as a whole, favours compounds with a hit. Of some 83,000 tested, about 20% had one in any assay. Active and inactive are the calls of the source. How the source made its calls: active means growth percent below 10; inactive means the rest.

Example results:
{"compound": "O=c1[nH]nc(-c2ccccc2)c2sc3ncc(-c4ccc(Br)cc4)n3c12", "growth": "47.5% (inactive)"}
{"compound": "CNCCOc1nc2c3cnccc3cc(-c3cc(OC)c(OC)c(OC)c3)c2c2ccncc12", "growth": "-62.1% (active)"}
{"compound": "O=C(/C=C/c1ccc[nH]1)c1ccc(-n2ccc(C(F)(F)F)n2)c(F)c1", "growth": "84.9% (inactive)"}

Lookup: What does the data say about its growth? Entry: "COc1cccc(-c2nc3occn3c2-c2ccnc(NCCNS(=O)(=O)c3ccc(C(F)(F)F)cc3)n2)c1"
Found: 66.5% (inactive)

Lookup: Same read-out for "Cc1nc(N)nc(N[C@@H](C)c2nc3cccc(NCc4ccc(C(=O)NO)cc4)c3c(=O)n2-c2ccccc2)n1" ?
Found: 59.1% (inactive)

Lookup: Try this compound next: "C#Cc1cccc(NC(=O)Nc2cccc(NC(=O)CCl)c2)c1"
Found: -61.6% [8.25 µM] (active)

Lookup: Can you handle "Cc1ccc(/C=C(/C#N)n2nnc3cccc(F)c32)cc1" next?
Found: 13.2% (inactive)

Lookup: Entry "O=C(Cc1ccc(/C=C/C(=O)c2nccs2)cc1)Nc1ccccc1" please
Found: 83.9% (inactive)

Lookup: // same read-out, input: "NC(=O)Nc1ccc(-n2cnc3cc(-c4ccc(O)cc4)ccc32)cc1"
Found: 108% (inactive)

Lookup: Please answer likewise for "O=C(NO)c1ccc(-n2nc(-c3ccccc3)c3ccccc32)cc1"
Found: 34.5% (inactive)

Lookup: Likewise for "COc1ccc(/C=C2\COc3ccc(-c4ccccc4)cc3C2=O)c(OC)c1" ?
Found: 74.1% (inactive)

Lookup: Next up: "COc1cc(-c2csc(NC(=O)c3cc(F)cc(C(F)(F)F)c3)n2)cc(OC)c1OC"
Found: 43.6% (inactive)

Lookup: // repeat for "COc1cc(CC(=O)n2ncc3ccc(N)cc32)cc(OC)c1OC" and report
Found: 92.9% (inactive)

Lookup: Next compound: "CC1(C)CC[C@]23CC[C@]4(C)[C@H](CC[C@@H]5[C@@]6(C)CCCNC(C)(C)[C@@H]6CC[C@]54C)[C@H]2[C@H]1OC3"
Found: -51.1% (active)

Lookup: Next: O=C(c1nc2ccccc2[nH]1)C1C(c2ccc(Cl)cc2)C2CC3CCCC[C@H]3N2[C@@]12C(=O)Nc1cc(Cl)ccc12 (stereo partly drawn)
Found: 59.3% (inactive)

Lookup: Entry "COCCCN1CC(O)=C(c2nc(-c3ccc(C)cc3)cs2)C1=N" please
Found: 103% (inactive)

Lookup: Same question, "N#Cc1c(NC(=O)NCc2ccccc2)sc2c1CCCCC2" this time
Found: 18.9% (inactive)

Lookup: Also, "CCCCCCNC(=O)Oc1ccc(/C(=C(\C)c2ccccc2)c2ccc(OCCN3CCCCC3)cc2)cc1" please.
Found: 5.21% (active)

---

# Tested on: LOX IMVI melanoma
# assay: NCI-60 one-dose screen, 48 h
# assay_setup: 10 µM unless noted
The panel holds about 83,000 compounds, 20% with a hit somewhere; the sample as a whole holds those more often. Activity calls are given as the source filed them. How the source made its calls: active means growth percent below 10; inactive means the rest.
The reply should be one of these categories: 1 for active, -1 for inactive

Answered cases to consult:
{"compound": "Brc1ccc(Nc2csc(-c3ccccn3)n2)cc1", "group": -1}
{"compound": "Cc1nn(-c2ccccc2)c(Oc2c(Cl)cccc2Cl)c1/C=N/N=c1\\sc2ccccc2n1C", "group": -1}
{"compound": "COc1cc(/C=N/O)nc(-c2ccccn2)c1", "group": 1}
{"compound": "C=C(C)[C@@H]1CC[C@]2(C(=O)N3CCN(C)CC3)CC[C@]3(C)[C@H](CC[C@@H]4[C@@]5(C)CC[C@H](OCCC#N)C(C)(C)[C@@H]5CC[C@]43C)[C@@H]12", "group": -1}
{"compound": "COc1cc(F)c(/C=C/c2cc(/C=C/c3cc(OC)c(OC)cc3F)on2)cc1OC", "group": -1}

Consider the record given below.
Lookup: What call does the record list for COc1cc2c(c(OC)c1OC)-c1ccc(NNC(=S)N(Cc3cccc(C[N+](Cc4cccc(CNC56CC7CC(CC(C7)C5)C6)c4)(Cc4cccc(CNC56CC7CC(CC(C7)C5)C6)c4)Cc4cccc(CN(C(=S)NNc5ccc6c(cc5=O)[C@@H](NC(C)=O)CCc5cc(OC)c(OC)c(OC)c5-6)C56CC7CC(CC(C7)C5)C6)c4)c3)C34CC5CC(CC(C5)C3)C4)c(=O)cc1[C@@H](NC(C)=O)CC2 (stereo partly specified) ?
Found: 1

---

Reported growth by item:
# Tested on: RPMI-8226 leukemia
# assay: NCI-60 one-dose screen, 48 h (100 = growth as untreated, 0 = no growth, -100 = all killed)
# assay_setup: 10 µM unless noted
About 83,000 compounds went through this panel and 20% of them were active in at least one assay; those are over-represented in the sample as a whole.
Value expressed in %; do not type the unit.

{"compound": "Brc1ccc2[nH]cc(-c3cncn3CCc3ccccc3)c2c1", "readout_label": "growth", "measured": 29.7}
{"compound": "O=C(O)c1ccc(-c2nn(-c3ccc(C(F)(F)F)cc3)cc2CNc2ccc(Oc3ccccc3)cc2)cc1", "readout_label": "growth", "measured": 46.5}

Lookup: Give its growth value. Item: "Cc1cccc(C)c1N=c1oc2ccc(Cl)cc2nc1-c1ccccc1O"
Found: 82.9

Lookup: Entry to check: "CCOC(=O)c1cc(C(=O)c2ccc(OC)c(OC)c2)n2c1ccc1ccccc12"
Found: 80

Lookup: // same read-out, input: "O=S(=O)(NCCNc1nccc(-c2c(-c3cccc(O)c3)nc3occn23)n1)c1ccccc1"
Found: 92.8
